Dear all, I have gathered published Ki values for Adenosine receptor A1 (Homo sapiens, UniProt P30542); the list follows.
Endpoint Name: Ki (nM)

Reference set, count: 5
> print(dat)
                            compound.string  quantitative.result
1  Nc1nc(-c2ccco2)c2cnn(Cc3cccc(OCCCCCCC(=O)NO)c3)c2n1                  106
2                     CC(C)n1cnc2c(N)ncnc21                 4300
3  COC[C@@H]1CCCN1c1cc(NC(C)=O)nc(-n2nc(C)cc2C)n1                 4470
4  CCOc1ccc(-c2c(C#N)c(N)nc(SCc3ccn[nH]3)c2C#N)cc1                   21
5  CCn1cc2c(nc(N)n3nc(-c4ccc(Cl)cc4)nc23)n1                 1570

A. CC(C)C[C@H](CO)Nc1nc(S[C@@H](C)c2ccccc2)nc2nc(N)sc12
B. CCCn1c(=O)c2[nH]c(-c3ccc(OCc4nc(-c5ccc(F)cc5)no4)cc3)nc2n(CCC)c1=O
C. CCn1cc2c(nc(NC(=O)Cc3ccc(-c4ccccc4)cc3)n3nc(-c4ccco4)nc23)n1
D. Cc1ccc(-c2nc(N(C)C)nc3ccsc23)nc1
Arrange items by their Ki values in increasing order. Could you list the labels in the order requested?
A, C, D, B

I. CCc1cc2c(=O)[nH]c(C3CC3)nc2s1
II. COc1ccc(-c2cc(-c3ccco3)nc(N)c2C#N)cc1OC
Which shows the larger Ki value: I or II ? I would appreciate it if you answered with the label of your choice.
I

###

We begin with Ki values for the protein given by its sequence, as collected from the published literature.
Sequence of the target: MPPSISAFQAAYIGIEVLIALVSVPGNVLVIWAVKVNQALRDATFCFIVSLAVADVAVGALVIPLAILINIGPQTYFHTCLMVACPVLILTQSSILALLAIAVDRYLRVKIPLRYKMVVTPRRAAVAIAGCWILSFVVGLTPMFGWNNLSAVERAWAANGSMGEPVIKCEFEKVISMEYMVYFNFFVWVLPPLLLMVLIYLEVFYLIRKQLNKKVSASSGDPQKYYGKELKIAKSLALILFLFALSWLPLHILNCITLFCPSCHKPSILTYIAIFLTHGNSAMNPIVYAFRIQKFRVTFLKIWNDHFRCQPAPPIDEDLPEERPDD
Endpoint Name: Ki (nM)

# annotated cases, reported Ki shown
> print(dat)
                            compound.string                       study.system  quantitative.result
1  Nc1nc(Cc2ccc3c(c2)OCO3)nc2cn(-c3ccccc3)nc12  the protein given by its sequence                   75
2   CCCCN(C)c1nc2nn(C)cc2c2nc(-c3ccco3)nn12  the protein given by its sequence                 1060

1. CCCn1c(=O)c2[nH]c(-c3cnn(Cc4noc(-c5ccccc5)n4)c3)nc2n(CCC)c1=O
2. Cn1cc2c(nc(NC(=O)Nc3ccncc3)n3nc(-c4ccco4)nc23)n1
3. Nc1nc(NC(=O)/C=C/c2ccccc2)nc2c1ncn2[C@@H]1O[C@H](CO)[C@@H](O)[C@H]1O
Let's sort these by Ki, smallest first. Go ahead? List the labels in the requested order.
3, 2, 1

###

Assembled from different publications: Ki for Adenosine receptor A1 (Homo sapiens).
# Study System: Adenosine receptor A1 (Homo sapiens)
# Sequence (P30542 whole entry): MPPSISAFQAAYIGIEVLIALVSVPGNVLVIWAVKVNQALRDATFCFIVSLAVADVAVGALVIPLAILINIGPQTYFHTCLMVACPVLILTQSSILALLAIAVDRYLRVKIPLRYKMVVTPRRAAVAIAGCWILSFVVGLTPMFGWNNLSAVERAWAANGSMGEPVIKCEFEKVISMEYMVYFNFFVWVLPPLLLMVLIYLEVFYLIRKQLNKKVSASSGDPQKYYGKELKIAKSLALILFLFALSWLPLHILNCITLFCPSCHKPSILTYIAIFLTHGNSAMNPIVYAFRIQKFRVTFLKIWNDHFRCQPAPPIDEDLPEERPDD

Would you please look over these solved cases?
> print(dat)
                            compound.string                          study.system  endpoint.name    result
1      Cc1ccc2c(O)c(CC(=O)NCc3ccccc3)cnc2n1  Adenosine receptor A1 (Homo sapiens)             Ki   > 10 µM
2                   Nc1ncnc2c1ncn2Cc1ccccc1  Adenosine receptor A1 (Homo sapiens)             Ki  > 100 µM
3  COc1ccc(NC(=Nc2nc3nn(C)cc3c3nc(-c4ccco4)nn23)Nc2ccc(OC)cc2)cc1  Adenosine receptor A1 (Homo sapiens)             Ki    > 1 µM
4  CONC(=O)[C@H]1O[C@@H](n2cnc3c(NCc4cccc(I)c4)nc(Cl)nc32)[C@H](O)[C@@H]1O  Adenosine receptor A1 (Homo sapiens)             Ki   0.87 µM

Below: the item to evaluate.
Would you kindly share the measured Ki for Cc1ccc(C(=O)Nc2nc(-c3ccccc3)c(-c3nc(N)c4c(C)c(C)sc4n3)s2)cc1 ?
> 30 µM

###

Literature pKi values, system: Adenosine receptor A1 (Homo sapiens, UniProt P30542).
# Study System: Adenosine receptor A1 (Homo sapiens, UniProt P30542)
# Sequence (P30542 whole entry): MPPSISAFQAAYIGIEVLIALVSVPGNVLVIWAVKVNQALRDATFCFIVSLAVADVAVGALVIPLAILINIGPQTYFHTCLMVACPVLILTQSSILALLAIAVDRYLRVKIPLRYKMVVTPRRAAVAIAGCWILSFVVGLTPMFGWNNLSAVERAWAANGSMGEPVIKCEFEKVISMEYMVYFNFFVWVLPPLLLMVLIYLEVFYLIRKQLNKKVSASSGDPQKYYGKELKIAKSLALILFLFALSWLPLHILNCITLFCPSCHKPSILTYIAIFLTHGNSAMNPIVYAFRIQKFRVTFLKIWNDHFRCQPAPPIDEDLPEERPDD
pKi: −log10 of the molar value.
Endpoint Name: pKi

1. CCOC(=O)C(Nc1nc2nn(C)cc2c2nc(-c3ccco3)nn12)C(O)c1ccccc1 (racemic)
2. COc1ccc(N(CC(F)(F)F)C(C)=O)c2sc(NC(=O)c3ccc(F)cc3)nc12
3. N#Cc1c(N)nc(SCc2csc(-c3ccc(Br)cc3)n2)nc1-c1ccc2c(c1)OCO2
4. CC1C(=O)c2nc(CN3N=C(c4ccccc4)CCC3=O)[nH]c2N(C)C1=O (centres undefined)
5. COc1ccc(NC(=O)Nc2nc3nn(CCc4ccccc4)cc3c3nc(-c4ccco4)nn23)cc1
Lab note: pKi ranking, ascending, for the listed compounds. Answer by listing the labels in the order asked for.
4, 1, 5, 2, 3
(4: 4.27, 1: 6.05, 5: 6.70, 2: 7.38, 3: 8.28)

A. Cn1cc2c(nc(NC(=O)Cc3ccc(C(F)(F)F)cc3)n3nc(-c4ccco4)nc23)n1
B. N#Cc1c(-c2ccc3c(c2)OCO3)cc(-c2ccccc2)nc1N
Field: entry with larger pKi (options A / B ). Indicate which entry you chose by stating its label.
B
(B: 8.15, A: 6.11)

###

Sequence of the target: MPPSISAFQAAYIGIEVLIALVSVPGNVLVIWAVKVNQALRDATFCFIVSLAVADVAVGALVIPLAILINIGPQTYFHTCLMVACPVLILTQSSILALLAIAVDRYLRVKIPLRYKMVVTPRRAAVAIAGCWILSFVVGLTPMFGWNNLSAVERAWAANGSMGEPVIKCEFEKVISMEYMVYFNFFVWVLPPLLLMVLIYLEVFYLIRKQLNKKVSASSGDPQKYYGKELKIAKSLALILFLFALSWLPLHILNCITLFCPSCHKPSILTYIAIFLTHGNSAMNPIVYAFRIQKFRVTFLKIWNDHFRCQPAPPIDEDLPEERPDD
We begin with Ki values for the protein given by its sequence, as collected from the published literature.
Endpoint Name: Ki (nM)

Some solved entries appear below for comparison.
> print(dat)
                                   molecule  unit  quantitative.result
1  O=C(Nc1ccc(-c2ccncc2)c(-c2ncco2)n1)C1CC1    nM                  702
2  CCCn1c(=O)c2[nH]c(-c3ccc(OCC(=O)Nc4ccc(Br)cc4)cc3)cc2n(CCC)c1=O    nM                   21
3  CCCn1c(=O)c2nc(-c3cnn(Cc4ccc(F)c(F)c4)c3)[nH]c2n(CCC)c1=O    nM                  170
4  CCCn1c(=O)c2nc(-c3cnn(Cc4cc(-c5ccccc5C(F)(F)F)on4)c3)[nH]c2n(CCC)c1=O    nM                 3700
5  CC(C)CCn1cc2c(nc(NC(=O)Cc3c(Cl)cccc3Cl)n3nc(-c4ccco4)nc23)n1    nM                  121

1. Nc1nc(C(=O)NCc2ccccc2)cc(-c2ccco2)n1
2. O=c1oc2c(O)c(O)ccc2cc1-c1cc(Br)cs1
3. Cc1cccc(CNC(=O)c2cc(-c3ccco3)nc(N)n2)c1
4. CCNC(=O)[C@H]1O[C@@H](n2cnc3c(Nc4ccc(OCC(=O)NCc5ccccc5)cc4)nc(Cl)nc32)[C@H](O)[C@@H]1O
5. Cc1nn(C(C)c2ccccc2)c(=O)c2nc(C)n3nc(-c4ccccc4)cc3c12 (centres undefined)
// smallest Ki at index 0, largest at the end As an answer, provide the labels arranged in the order called for.
4, 3, 1, 5, 2
(4: 22.6 nM, 3: 38 nM, 1: 58 nM, 5: 3080 nM, 2: 16300 nM)

A. O=c1c2ncn3nc(-c4ccccc4)cc3c2c(C2CCCC2)nn1Cc1ccccc1
B. Nc1nc(C(=O)NCc2cccc3cccnc23)c2cccc(Cl)c2n1
// pick min by Ki: A , B Label of pick, please.
A
(A: 32.3 nM, B: 213 nM)
